Answer each item with its documented minimal inhibitory concentration (MIC).
Tested on: S. aureus 209PJC
Experiment: Antibacterial activity test (MIC)
Assay type: cell-based
Conditions: Mueller-Hinton Broth, 37° C., 20 to 24 hours
Numbers only, in µg/mL.

Worked cases, minimal inhibitory concentration (MIC) given:
molecule	measure.unit	minimal inhibitory concentration (MIC)
CCCCCCCCCCC1N=C(N)NC(Nc2ccc(F)cc2F)=N1 (stereo not shown) [compound 34]	µg/mL	1.6
CCCCCCCCCCNC1=NC(C)(C)N=C(NCc2ccc(OC)cc2)N1.O=C(O)C(=O)O [compound 40]	µg/mL	0.4
CCCCCCCCCCNC1=NC(C)(C)N=C(NCc2ccccc2)N1.O=C(O)CC(=O)O [41(2)]	µg/mL	0.4
CCCCCCCCNC1=NC(C)(C)N(Cc2ccc(Cl)c(Cl)c2)C(N)=N1.Cl [12(2)]	µg/mL	0.8
CC(=O)O.CCCCCCCCNC1=NC(C)(C)N=C(NCCCCCCCC)N1 [compound 66]	µg/mL	0.8
CCCCCCCCCCCNC1=NC(C)(C)N=C(NCc2ccc(O)cc2)N1.Cl [compound 9]	µg/mL	0.4

// each molecule listed below needs its minimal inhibitory concentration (MIC)
1. CCCCCCCCCCC1N=C(N)N=C(N)N1Cc1ccc(C(F)(F)F)cc1.Cl (racemic) [18(2)]
2. CCCCCCCCCCCCC1N=C(N)N=C(N)N1Cc1ccc(OC)cc1.Cl (racemic) [16(2)]

output:
[0.8, 0.4]

// each molecule listed below needs its minimal inhibitory concentration (MIC)
1. CCCCCCCCCNC1=NC(C)(C)N=C(NCc2ccccc2)N1.O=C(O)O [compound 47]
2. CC(=O)O.CCCCCCCNC1=NC(C)(C)N=C(NCc2ccc(C)cc2)N1 [compound 59]
3. CCCCCCCCCCC1N=C(N)NC(NCc2ccc(C(F)(F)F)cc2)=N1.Cl (racemic) [18(1)]
4. CC(=O)O.CCCCCCCCNC1=NC(C)(C)N=C(NCCc2ccccc2)N1 [compound 57]

output:
[0.4, 0.8, 0.4, 0.8]

// each molecule listed below needs its minimal inhibitory concentration (MIC)
1. CC(=O)O.CCCCCCCCCNC1=NC(C)(C)N=C(NCc2ccccc2)N1 [compound 48]
2. CCCCCCCCC1N=C(N)NC(Nc2ccc(OC(F)(F)F)cc2)=N1.Cl (stereo not shown) [compound 27]
3. CCCCCCCCCCCC1N=C(N)NC(NCc2ccccc2)=N1.Cl (racemic) [43(1)]
4. CCCCCCCCCCCC1N=C(N)NC(NCc2ccc(C(F)(F)F)cc2)=N1.Cl (stereo not shown) [compound 19]
5. CCCCCCCCCCCCNC1=NC(C)(C)N=C(N)N1.O=[N+]([O-])O [compound 75]
6. CCCCCCCNC1=NC(CC)(CC)N=C(NCc2ccccc2)N1.Cl [compound 53]
7. CCCCCCCCCCNC1=NC(C)(C)N=C(NCCc2ccc(OC)cc2)N1.Cl [compound 4]
8. CCCCCCCCCCCC1(C)N=C(N)N=C(N)N1c1ccc(Cl)cc1.Cl (racemic) [compound 45]

output:
1: 0.8; 2: 1.6; 3: 0.4; 4: 0.4; 5: 0.8; 6: 1.6; 7: 0.4; 8: 0.4

// each molecule listed below needs its minimal inhibitory concentration (MIC)
1. CC(=O)O.CCCCCCCCCCCCNC1=NC(C)(C)N=C(NCC)N1 [compound 73]
2. CC(=O)O.CCCCCCCCNC1=NC(C)(C)N=C(NCc2ccc(C)cc2)N1 [compound 58]
3. CCCCCCCCC1N=C(N)NC(Nc2cc(C(C)(C)C)ccc2OC)=N1 (stereo not shown) [compound 25]

output:
[0.8, 0.4, 1.6]

// each molecule listed below needs its minimal inhibitory concentration (MIC)
1. CCCCCCCCCCNC1=NC(C)(C)N=C(NCc2ccc(OC)cc2)N1.O=C(O)CC(=O)O [compound 39]
2. CCCCCCCCCC1N=C(N)N=C(N)N1c1ccc(F)c(F)c1F.Cl (stereo not shown) [compound 30]
3. CCCCCCCCCNC1=NC(C)(C)N(c2ccccc2)C(N)=N1.Cl [compound 61]

output:
0.4
1.6
6.3

// each molecule listed below needs its minimal inhibitory concentration (MIC)
1. CC(=O)O.CCCCCCCCNC1=NC(C)(C)N=C(NCCCCCCC)N1 [compound 67]
2. CCCCCCCCNC1=NC(C)(C)N(c2cnc3ccccc3c2)C(N)=N1.Cl.Cl [compound 81]
3. CC(=O)O.CCCCCCCNC1=NC(C)(C)N=C(NCCCCCC)N1 [compound 70]

output:
[0.8, 0.8, 0.8]

// each molecule listed below needs its minimal inhibitory concentration (MIC)
1. CCCCCCCCCCCC1(C)N=C(N)NC(NCc2ccccc2)=N1.Cl (racemic) [compound 46]
2. CCCCCCCCCCNC1=NCN=C(NCCc2ccc(OC)cc2)N1.Cl [compound 10]

output:
1: 0.4; 2: 0.4

====

System: S. aureus 209PJC
Experiment: Antibacterial activity test (MIC)
Assay type: cell-based
Details: Mueller-Hinton Broth, 37° C., 20 to 24 hours
Method: Regarding compounds obtained in respective Working Examples, in order to investigate antibacterial activity, minimal inhibitory concentration (MIC) was determined according to a standard method of Japanese Society of Chemotherapy. As a test bacterium, nine kinds of S. aureus 209PJC, MRSA 97-115, MRSA KM 97-53, MRSA KM97-108, VRE 49, E. coli NIHJ JC-2, P. aeruginosa PAO-1, P. aeruginosa No. 12, P. aeruginosa KM97-5 were used and, as a medium, Mueller-Hinton Broth (DIFCO) was used. […]
property.label: minimal inhibitory concentration (MIC) (µg/mL)
Numbers only, in µg/mL.

Worked cases, minimal inhibitory concentration (MIC) given:
compound	test.system	minimal inhibitory concentration (MIC) (µg/mL)
CCCCCCCCCCCCC1N=C(N)NC(NCCc2ccc(OC)cc2)=N1.Cl (racemic) [15(1)]	S. aureus 209PJC	0.4
CCCCCCCCNC1=NC(C)(C)N=C(NCc2ccc(Cl)c(Cl)c2)N1.Cl [12(1)]	S. aureus 209PJC	0.4
CCCCCCCCCC1N=C(N)N=C(N)N1c1ccc(C(C)(C)C)cc1.Cl (stereo not drawn) [compound 22]	S. aureus 209PJC	0.8
CCCCCCCCNC1=NC(C)(C)N=C(NCc2ccc(O)cc2)N1.Cl [compound 8]	S. aureus 209PJC	0.4

// each compound listed below needs its minimal inhibitory concentration (MIC)
1. CCCCCCCCNC1=NC(C)(C)N=C(NCc2ccc(C)cc2)N1 [compound 37]
2. CCCCCCCCCNC1=NC(C)(C)N=C(NCCc2ccc(OC)cc2)N1.Cl [compound 5]
3. CCCCCCCCCCCC1N=C(N)NC(Nc2ccc(F)cc2F)=N1.Cl (racemic) [compound 36]

output:
0.8
0.5
0.8

// each compound listed below needs its minimal inhibitory concentration (MIC)
1. CCCCCCCCC1N=C(N)N=C(N)N1c1cc(C(C)(C)C)ccc1OC.Cl (stereo not drawn) [compound 24]
2. CC(=O)O.CCCCCCCCNC1=NC(C)(C)N=C(NCCCCCC)N1 [compound 68]

output:
1: 1.6; 2: 0.8

====

Test system: MRSA 97-115
Assay: Antibacterial activity test (MIC)
Assay type: cell-based, methicillin-resistant Staphylococcus aureus
Settings: Mueller-Hinton Broth, 37° C., 20 to 24 hours
# cutoff 2 µg/mL applies to minimal inhibitory concentration (MIC); >= gives Yes, < gives No

Please review the entries below; each comes with its answer.
compound	label.value
CCCCCCCCCC1N=C(N)NC(Nc2ccc(C(C)(C)C)cc2)=N1.Cl (stereo not drawn)	No
CC(=O)O.CCCCCCCCCNC1=NC(C)(C)N=C(Nc2ccccc2)N1	No
CCCCCCCCCNC1=NC(C)(C)N=C(NCCc2ccc(OC)cc2)N1.Cl	No

input: Check this compound for minimal inhibitory concentration (MIC) at or above 2 µg/mL: `CCCCCCCCCNC1=NC(C)(C)N=C(NCc2ccccc2)N1.O=C(O)O`
output: No

input: # iterate: CCCCCCCCCCCCC1N=C(N)NC(NCCc2ccc(OC)cc2)=N1.Cl (racemic)
output: No

input: # iterate: `CCCCCCCCCCNC1=NC(C)(C)N=C(NCc2ccccc2)N1.O=C(O)CC(=O)O`
output: No

input: # iterate: `CCCCCCCCCCNC1=NCN=C(NCCc2ccc(OC)cc2)N1.Cl`
output: Yes

input: # iterate: CCCCCCCC1N=C(N)N=C(N)N1c1ccc(C(C)(C)C)cc1.Cl (stereo not drawn)
output: Yes

input: # iterate: CCCCCCCCCCCC1N=C(N)N=C(N)N1c1ccc(F)cc1F.Cl (racemic)
output: Yes

====

System: P. aeruginosa PAO-1
Assay: Bactericidal activity test (MBC, phenol coefficient measuring method)
Type: cell-based
Conditions: 1 min
Answer each item with its documented minimal bactericidal concentration (MBC).
Give bare numbers, in µg/mL.

Worked cases, minimal bactericidal concentration (MBC) given:
molecule	minimal bactericidal concentration (MBC) / µg/mL
CC(=O)O.CCCCCCCNC1=NC(C)(C)N=C(NCCCCCCC)N1 [compound 69]	3.1
Br.CCCCCCCCCNC1=NC(C)(C)N=C(NCc2ccccc2)N1 [compound 49]	12.5
CCCCCCCCCCNC1=NC(C)(C)N=C(NCCc2ccc(OC)cc2)N1.Cl [compound 4]	3.1
CCCCCCCCCC1N=C(N)N=C(N)N1c1ccc(C(C)(C)C)cc1.Cl (centres unmarked) [compound 22]	12.5

Query molecule follows.
input: Notebook: pull reported minimal bactericidal concentration (MBC) for P. aeruginosa PAO-1, entry CC(=O)O.CCCCCCCCNC1=NC(C)(C)N=C(NCc2ccc(C)cc2)N1 [compound 58]
output: 12.5

Where do these numbers come from? They come from patent US7622469B2.
